FYI, the data here is from paper PMC2756588.

- tested.on: T1, Pin3, Q06449
- T1 sequence (Q06449 53-122, looked up): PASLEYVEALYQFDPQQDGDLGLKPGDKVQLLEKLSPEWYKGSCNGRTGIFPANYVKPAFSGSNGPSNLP
- experiment.summary: SPOT array
- experimental.parameters: median of control spots 2171
property.label: SPOT intensity

Sample answers from the record:
- binder: "RRTRLRPPTPLSQLL"
  SPOT intensity: 9
- binder: "RRSKSLPITPKSIFN"
  SPOT intensity: 4
- binder: "MSPLGAPPPPPHKDH"
  SPOT intensity: 0
- binder: "RKRAPTPPAPSRSEK"
  SPOT intensity: 7
- binder: "LLGRKRPVMERVVDI"
  SPOT intensity: 61

A. IVNKPLPPLPVAGSS
B. NMLSRPRLAKLPSIR
Data request: I'd appreciate it if you could identify which of A and B has the greater SPOT intensity. I would appreciate it if you answered with the label of your choice.
Data returned: B
(B: 40, A: 0)

A. PLQSKIPMLPSRRTM
B. VKPRQLFPIPLNKVD
C. TSIEIPKRSPLRFTS
D. EEEEEHPPLPARRKS
Data request: Number of binders to sort: 4. Sort criterion: SPOT intensity, ascending. Return the labels ranked in the requested order, please.
Data returned: D, B, C, A

A. KDKSRPPRPPPKPLH
B. SGVRLPAPPPPPRRG
Data request: I'd appreciate it if you could identify which of A and B has the greater SPOT intensity. I would appreciate it if you answered with the label of your choice.
Data returned: B
(B: 4, A: 0)
